Biological target: human transferrin (human, UniProt P02787 20-698)
Sequence (P02787 20-698 limits assumed): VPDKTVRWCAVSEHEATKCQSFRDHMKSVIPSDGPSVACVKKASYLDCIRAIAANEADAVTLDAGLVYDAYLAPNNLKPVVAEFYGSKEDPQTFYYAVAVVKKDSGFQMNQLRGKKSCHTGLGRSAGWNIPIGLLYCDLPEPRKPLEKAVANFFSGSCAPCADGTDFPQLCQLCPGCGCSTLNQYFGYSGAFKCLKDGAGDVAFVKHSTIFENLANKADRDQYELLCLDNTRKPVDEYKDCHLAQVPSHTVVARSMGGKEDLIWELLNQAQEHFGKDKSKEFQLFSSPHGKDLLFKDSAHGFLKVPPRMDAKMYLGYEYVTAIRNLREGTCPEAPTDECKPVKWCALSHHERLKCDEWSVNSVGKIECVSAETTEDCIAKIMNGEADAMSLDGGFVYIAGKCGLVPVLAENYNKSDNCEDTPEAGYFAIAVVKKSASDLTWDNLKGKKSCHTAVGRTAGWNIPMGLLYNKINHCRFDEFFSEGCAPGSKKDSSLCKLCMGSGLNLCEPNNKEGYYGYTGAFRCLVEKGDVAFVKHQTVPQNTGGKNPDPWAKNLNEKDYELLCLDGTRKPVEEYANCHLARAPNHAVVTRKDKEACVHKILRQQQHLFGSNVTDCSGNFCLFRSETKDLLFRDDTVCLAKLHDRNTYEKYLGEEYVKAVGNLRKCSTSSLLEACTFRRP
Test: SPR, BIAcore T200, human transferrin amine-coupled to CM5 chip, sdAb injected
With a cut-off of 0.001 s⁻¹, any koff strictly below it is called condition met; any koff meeting it or above is called condition not met.

-- ask is_below(koff, 0.001 s⁻¹) for AS01274VHa-A49 (VHH, Humanized variant of AS01274, C-terminal 6xHis tag) VHH: EVQLVESGGGLVQPGGSLRLSCAASGSIASIATMAWYRQAPGKGLELVSGITRGGSTKYADSVKGRFTISRDNSKNTLYLQMNSLRAEDTAVYYCTDYSRKYYQDYWGQGTLVTVSS ?
-- reply condition met

-- ask Then AS01299 sdAb (VHH, Llama sdAb made in E. coli with a C-terminal 6xHis tag; also called sdAb AS01299) VHH: QVQLVESGGGLVQPGGSLRLSCAASGSIFSIATMAWYRQAPGKQRELVAGITRSGSTNYRDSVKGRFTISRDNAKNTMYLQMNSLKPEDTAVYYCTDYSSRYYHDYWGQGTQVTVSS ?
-- reply condition not met

-- ask Then AS01299VH4 (VHH, Humanized variant of AS01299, C-terminal 6xHis tag) VHH: EVQLVESGGGLVQPGGSLRLSCAASGSIFSIATMAWYRQAPGKGLELVSGITRSGSTNYRDSVKGRFTISRDNSKNTLYLQMNSLRAEDTAVYYCTDYSSRYYHDYWGQGTLVTVSS ?
-- reply condition not met

Origin of values: patent US20220033481A1
